subject_of_test: UniProtKB P03956
Sequence (P03956 whole entry): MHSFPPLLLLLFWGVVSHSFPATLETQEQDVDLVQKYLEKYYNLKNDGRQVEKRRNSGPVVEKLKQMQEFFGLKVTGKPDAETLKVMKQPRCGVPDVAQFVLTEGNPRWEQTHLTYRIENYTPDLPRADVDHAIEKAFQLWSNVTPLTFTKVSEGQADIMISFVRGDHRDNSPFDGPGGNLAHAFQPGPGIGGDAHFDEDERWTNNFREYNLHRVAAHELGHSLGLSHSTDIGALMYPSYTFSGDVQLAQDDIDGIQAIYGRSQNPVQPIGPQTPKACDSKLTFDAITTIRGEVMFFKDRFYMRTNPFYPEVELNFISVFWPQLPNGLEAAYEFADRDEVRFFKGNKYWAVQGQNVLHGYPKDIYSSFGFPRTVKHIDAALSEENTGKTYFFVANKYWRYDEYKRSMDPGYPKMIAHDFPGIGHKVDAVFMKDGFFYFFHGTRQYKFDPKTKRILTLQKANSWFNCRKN
assay_summary: Inhibition of human recombinant MMP1 after 60 mins by fluorescence plate reader
pIC50: −log10 of the molar value.
Here, each record is paired with measured pIC50 data.

[
  {
    "chemical_string": "C[C@@H]1CN(S(=O)(=O)N[C@@]2(C(=O)O)[C@H](C)[C@]2(C)c2ccccc2)CCN1c1ccc(C#N)s1",
    "pIC50": "< 5.00"
  },
  {
    "chemical_string": "C[C@@H]1CN(S(=O)(=O)N[C@@]2(C(=O)O)[C@H](C)[C@]2(C)c2ccccc2)CCN1c1cc(C(F)F)on1",
    "pIC50": "< 5.00"
  },
  {
    "chemical_string": "C[C@@H]1[C@](C)(c2ccccc2)[C@]1(NS(=O)(=O)N1CCc2c(nn3cc(F)ccc23)C1)C(=O)O",
    "pIC50": "< 5.00"
  },
  {
    "chemical_string": "C[C@@H]1CN(S(=O)(=O)N[C@@]2(C(=O)O)[C@H](C)[C@@H]2c2ccccc2)CCN1c1cc(C(F)F)on1",
    "pIC50": "< 5.00"
  },
  {
    "chemical_string": "C[C@@H]1[C@H](c2ccccc2)[C@]1(NS(=O)(=O)c1cc2[nH]c3cc(Cl)ccc3c2s1)C(=O)O",
    "pIC50": 6.00
  },
  {
    "chemical_string": "C[C@@H]1CN(S(=O)(=O)N[C@@]2(C(=O)O)[C@H](C)[C@@H]2c2ccccc2)CCN1c1ccc(C2CC2)cc1",
    "pIC50": "< 5.00"
  },
  {
    "chemical_string": "C[C@@H]1[C@H](c2ccccc2)[C@]1(NS(=O)(=O)N1Cc2nc3cc(Cl)ccn3c2C1)C(=O)O",
    "pIC50": 5.43
  },
  {
    "chemical_string": "C[C@@H]1[C@H](c2ccccc2)[C@]1(NS(=O)(=O)N1CCN(c2ccc(Cl)cc2)CC1)C(=O)O",
    "pIC50": "< 5.00"
  }
]
